tested-target: human ether-à-go-go-related gene (hERG) potassium channel (human, UniProt Q12809);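 note: peak tail current of the secondary pulse compared with the same well before compound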
Sequence (Q12809 whole entry, looked up): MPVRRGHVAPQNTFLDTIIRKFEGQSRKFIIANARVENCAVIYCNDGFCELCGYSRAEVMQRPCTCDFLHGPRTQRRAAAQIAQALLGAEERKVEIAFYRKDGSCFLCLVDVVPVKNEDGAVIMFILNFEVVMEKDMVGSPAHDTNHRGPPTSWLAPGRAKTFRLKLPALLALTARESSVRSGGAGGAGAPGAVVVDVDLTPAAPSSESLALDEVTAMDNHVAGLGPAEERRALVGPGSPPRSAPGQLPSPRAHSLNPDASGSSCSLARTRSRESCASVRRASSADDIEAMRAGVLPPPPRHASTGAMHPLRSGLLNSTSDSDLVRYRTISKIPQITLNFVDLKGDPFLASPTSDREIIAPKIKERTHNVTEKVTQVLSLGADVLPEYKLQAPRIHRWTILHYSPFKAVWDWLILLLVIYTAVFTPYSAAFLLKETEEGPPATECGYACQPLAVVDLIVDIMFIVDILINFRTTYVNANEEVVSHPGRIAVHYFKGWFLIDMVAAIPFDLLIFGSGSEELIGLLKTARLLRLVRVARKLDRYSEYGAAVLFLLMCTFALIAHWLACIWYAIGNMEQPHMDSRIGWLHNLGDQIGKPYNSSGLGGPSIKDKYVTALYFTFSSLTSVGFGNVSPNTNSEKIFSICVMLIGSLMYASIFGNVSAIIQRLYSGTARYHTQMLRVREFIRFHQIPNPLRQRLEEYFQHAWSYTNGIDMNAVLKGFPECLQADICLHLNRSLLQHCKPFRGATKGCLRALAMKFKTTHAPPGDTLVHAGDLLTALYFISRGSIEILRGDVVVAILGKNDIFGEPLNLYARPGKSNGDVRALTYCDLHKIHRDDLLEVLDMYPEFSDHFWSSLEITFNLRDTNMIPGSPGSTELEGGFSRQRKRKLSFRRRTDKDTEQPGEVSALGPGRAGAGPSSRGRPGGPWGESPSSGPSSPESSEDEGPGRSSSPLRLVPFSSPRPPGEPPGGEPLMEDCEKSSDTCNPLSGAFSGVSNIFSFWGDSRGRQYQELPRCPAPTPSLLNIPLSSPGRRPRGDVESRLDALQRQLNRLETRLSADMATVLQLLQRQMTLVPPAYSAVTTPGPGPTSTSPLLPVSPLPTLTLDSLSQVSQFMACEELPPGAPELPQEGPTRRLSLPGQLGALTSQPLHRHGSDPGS
procedure-summary: primary screen, population patch clamp on CHO cells stably expressing hERG; higher = less effect of the substance
Among all 310,000 compounds or so, about 14,000 (4.5%) showed an effect of 50% or more. Effects have a minus sign here. The list comes from a sample in which strong results are over-represented; it also holds close analogues and randomly drawn compounds.
For each record, write down the corresponding hERG current change (%, negative = inhibition) at 10uM.
The answer is to be given in %; state only the numeric part.

Req: # value lookup — system human ether-à-go-go-related gene (hERG) potassium channel (human, UniProt Q12809), readout hERG current change (%, negative = inhibition) at 10uM, item "Cc1c(/C=N/NC(N)=O)c2ccccn2c1C(=O)c1ccncc1.Cl"
Resp: -54.9

Req: # value lookup — system human ether-à-go-go-related gene (hERG) potassium channel (human, UniProt Q12809), readout hERG current change (%, negative = inhibition) at 10uM, item "Cc1c(/C=N/NC(=O)CNc2ccccc2)c2ccccn2c1C(=O)c1ccncc1"
Resp: 0.0344

Req: # value lookup — system human ether-à-go-go-related gene (hERG) potassium channel (human, UniProt Q12809), readout hERG current change (%, negative = inhibition) at 10uM, item O=C(NC1CCCC1)C(=O)N(Cc1cccnc1)C(C(=O)NCC1CCCO1)c1ccco1 (centres unmarked);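 note: peak tail current of the secondary pulse compared with the same well before compound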
Resp: 38.2

Req: # value lookup — system human ether-à-go-go-related gene (hERG) potassium channel (human, UniProt Q12809), readout hERG current change (%, negative = inhibition) at 10uM, item "O=C(CON=C1c2ccccc2-c2ccccc21)NC12CC3CC(CC(C3)C1)C2"
Resp: -7.23

Req: # value lookup — system human ether-à-go-go-related gene (hERG) potassium channel (human, UniProt Q12809), readout hERG current change (%, negative = inhibition) at 10uM, item "CCCCCCCSc1nnc(-c2ccccc2N)c(=O)[nH]1"
Resp: 6.86

====

tested-target: human ether-à-go-go-related gene (hERG) potassium channel (human, UniProt Q12809);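 note: peak tail current of the secondary pulse compared with the same well before compound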
procedure-summary: primary screen, population patch clamp on CHO cells stably expressing hERG; higher = less effect of the substance
The whole screen tested about 310,000 compounds, of which about 14,000 (4.5%) showed an effect of 50% or more. Effects have a minus sign here. This excerpt belongs to a sample that is enriched for strong results.
experimental-endpoint: hERG current change (%, negative = inhibition) at 10uM (%)
The answer is to be given in %; state only the numeric part.

Req: Give the measured hERG current change (%, negative = inhibition) at 10uM of "Cc1cccc(Nc2nc(N)nc(CN3CCN(Cc4ccc5c(c4)OCO5)CC3)n2)c1" .
Resp: -75.2

Req: Give the measured hERG current change (%, negative = inhibition) at 10uM of "O=C(CCC1CCN(C(=O)c2cncs2)CC1)Nc1ccccc1" .
Resp: -4.83

Req: Give the measured hERG current change (%, negative = inhibition) at 10uM of "c1ccc(CN2CCC(N3CCN(Cc4ccc5c(c4)OCO5)CC3)CC2)cc1" .
Resp: -39.8

Req: Give the measured hERG current change (%, negative = inhibition) at 10uM of "Cc1ccc(Nc2nc(N)nc(CN3CCN(Cc4ccc5c(c4)OCO5)CC3)n2)cc1Cl" .
Resp: -81.2

Req: Give the measured hERG current change (%, negative = inhibition) at 10uM of "Cc1cc(Cl)ccc1NC(=S)N1CCN(Cc2ccc3c(c2)OCO3)CC1" .
Resp: 4.84
